The measurements presented in this section are drawn from patent US20140302063A1.

target: A/Indonesia/05/2005 (H5N1) inactivated viral preparation (Influenza A virus A/Indonesia/05/2005 (H5N1)); test: ELISA, inactivated virus
Threshold-based label: EC50 under 0.8 µg/mL gives label 1, EC50 not under 0.8 µg/mL gives label 0.

[
  {
    "Binder": "R1a-A5 (VHH) VHH: QVQLVESGGGLVQPGGSLRLSCSASGSAVLFSTYPMSWYRQAPGKQRELVAAVTTDGSTSYADYAKGRFTISRDNAKNTVYLQMNSLKPEDTAVYYCNARDGFFNRYDYWGQGTQVTVSS",
    "Label": "label 1"
  },
  {
    "Binder": "R2b-D9 (VHH) VHH: QVQLVESGGGLVQPGGSLRLSCLASGSAFSLYTMGWYRQAPGNQRELVAAITSGESTNYADSVKGRFTISRDNAKNTVYLQMNSLKPEDTAVYYCNADPLSTGWGQYSYWGQGTQVTVSS",
    "Label": "label 1"
  },
  {
    "Binder": "R1a-C5 (VHH) VHH: QVQLVESGGGLVQPGGSLRLSCAASNDIFSFYTMGWYLQAIGKQREPVAVIGNGGNTNYAESVKGRFTISRDGAKNTAYLQMNSLKPEDTAVYYCMASGPGGLNVWGQGTQVTVSS",
    "Label": "label 0"
  },
  {
    "Binder": "R2a-G8 (VHH) VHH: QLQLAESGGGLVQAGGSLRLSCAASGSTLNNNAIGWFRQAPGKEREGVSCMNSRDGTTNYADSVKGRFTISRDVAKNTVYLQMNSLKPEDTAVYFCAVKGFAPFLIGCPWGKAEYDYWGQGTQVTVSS",
    "Label": "label 0"
  },
  {
    "Binder": "R1a-B6 (VHH) VHH: QVQLVESGGGLVQPGGSLRLSCAASGSFFSRYRMGWYRQAPGEQRELVASIAYDGSTSYADPVKGRFTISRDNANTVHLQMYSLKPDDTAVYYCNLDPPGILYWGQGTQVTVSS",
    "Label": "label 1"
  }
]
